# assay.comment: DRUGMATRIX: Potassium Channel [KATP] radioligand binding (ligand: [3H] Glyburide)
# Type: cell membranes, Membrane
# condition.set: hit-t15; Not Active = under 50% inhibition at 10 µM; read-out: IC50
pIC50: −log10 of the molar value.
outcome.measure: pIC50

1. COc1ccc(Cl)cc1C(=O)NCCc1ccc(S(=O)(=O)NC(=O)NC2CCCCC2)cc1 [GLYBURIDE]    8.42

###

# assay.comment: DRUGMATRIX: Glutamate, Kainate radioligand binding (ligand: [3H] Kainic acid)
# Type: cell membranes, Rattus norvegicus, Wistar, Brain, Membrane
# condition.set: Not Active = under 50% inhibition at 10 µM
outcome.measure: Ki

1. Nc1nc(N)c2nc(-c3ccccc3)c(N)nc2n1    Not Active
2. O=C(O)c1cc(/N=N/c2ccc(S(=O)(=O)Nc3ccccn3)cc2)ccc1O    Not Active
3. CNC[C@H](O)c1ccc(O)c(O)c1 [EPINEPHRINE]    Not Active
4. CC#C[C@]1(O)CC[C@H]2[C@@H]3CCC4=CC(=O)CCC4=C3[C@@H](c3ccc(N(C)C)cc3)C[C@@]21C    Not Active
5. C1CCN2C[C@@H]3C[C@@H](CN4CCCC[C@@H]34)[C@H]2C1    Not Active

###

# pKi listing for each entry below
# subject.of.test: Muscarinic acetylcholine receptor M2 (Homo sapiens, UniProt P08172)
# Sequence (P08172 whole entry): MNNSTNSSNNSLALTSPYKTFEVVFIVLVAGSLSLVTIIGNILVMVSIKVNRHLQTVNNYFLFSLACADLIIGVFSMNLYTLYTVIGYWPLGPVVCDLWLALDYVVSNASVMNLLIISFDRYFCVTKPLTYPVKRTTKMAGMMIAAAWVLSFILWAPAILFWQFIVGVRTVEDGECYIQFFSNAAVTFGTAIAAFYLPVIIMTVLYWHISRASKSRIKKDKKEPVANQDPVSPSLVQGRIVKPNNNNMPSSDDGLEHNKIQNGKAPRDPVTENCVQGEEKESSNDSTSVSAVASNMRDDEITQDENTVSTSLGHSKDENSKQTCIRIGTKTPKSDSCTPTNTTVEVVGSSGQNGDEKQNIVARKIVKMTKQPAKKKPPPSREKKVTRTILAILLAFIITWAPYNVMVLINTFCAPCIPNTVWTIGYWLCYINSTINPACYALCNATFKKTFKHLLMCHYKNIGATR
# Format: cell membranes, CHO-K1, Membrane
# condition.set: read-out: Ki
pKi: −log10 of the molar value.
outcome.measure: pKi

1) CC[C@H](C)[C@@H](CO[C@@H](Cc1ccccc1)C(=O)N[C@@H](CCS(C)(=O)=O)C(=O)OC(C)C)NC[C@@H](N)CS    5.90
2) CCN(CCO)CCCC(C)Nc1ccnc2cc(Cl)ccc12 (centres undefined) [HYDROXYCHLOROQUINE]    5.98
3) CC(CN1c2ccccc2Sc2ccccc21)N(C)C (centres undefined)    7.92
4) CC1(COc2ccc(CC3SC(=O)NC3=O)cc2)CCCCC1 (centres undefined)    5.12

###

# assay.comment: DRUGMATRIX: GABAA, Muscimol, Central radioligand binding (ligand: [3H] Muscimol)
# Type: cell membranes, Rattus norvegicus, Wistar, Brain, Membrane
# condition.set: Not Active = under 50% inhibition at 10 µM
outcome.measure: Ki

1) CO[C@@H]1[C@@H](OC)[C@H](C)[C@@](O)(CC(=O)O)O[C@H]1[C@H](C)[C@H]1O[C@@]2(CC[C@@](C)([C@H]3CC[C@@](C)([C@@H]4O[C@@H]([C@H]5O[C@](C)(O)[C@H](C)C[C@@H]5C)C[C@@H]4O[C@@H]4C[C@H](OC)[C@@H](OC)[C@H](C)O4)O3)O2)C[C@H](O)[C@H]1C.N    Not Active
2) Oc1ccc(/C=C/c2cc(O)cc(O)c2)cc1    Not Active
3) Oc1ccccc1    Not Active

###

# subject.of.test: 5-hydroxytryptamine receptor 1A (Rattus norvegicus)
# Sequence (P19327 whole entry): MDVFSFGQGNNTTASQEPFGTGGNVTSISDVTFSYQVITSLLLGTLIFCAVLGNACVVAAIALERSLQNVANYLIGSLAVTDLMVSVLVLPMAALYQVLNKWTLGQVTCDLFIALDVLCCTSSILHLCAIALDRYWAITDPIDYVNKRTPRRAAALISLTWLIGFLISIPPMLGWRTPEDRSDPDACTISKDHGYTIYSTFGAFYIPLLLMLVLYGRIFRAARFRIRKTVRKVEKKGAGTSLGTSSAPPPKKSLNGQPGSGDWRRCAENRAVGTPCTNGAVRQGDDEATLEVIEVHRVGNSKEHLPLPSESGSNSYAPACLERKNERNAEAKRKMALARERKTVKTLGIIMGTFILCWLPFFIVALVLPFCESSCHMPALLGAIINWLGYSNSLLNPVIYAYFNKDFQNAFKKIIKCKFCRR
# Type: cell membranes, CHO-K1, Membrane
# condition.set: read-out: Ki
pKi: −log10 of the molar value.
Outcome label depends on pKi relative to 8: at/above gives rule met, below gives rule not met.

1. CC(N)Cc1c[nH]c2ccc(OCc3cccs3)cc12 (configuration not stated) [BW-723C86]    rule not met
2. CC(C)(C)NC[C@H](O)COc1cccc2c1CCCC2=O [LEVOBUNOLOL]    rule not met
3. c1ccc2sc(SSc3nc4ccccc4s3)nc2c1 [BENZOTHIAZYL DISULFIDE]    rule not met
4. CC(CN1c2ccccc2Sc2ccccc21)N(C)C (configuration not stated) [PROMETHAZINE]    rule not met
5. COc1ccccc1OCCNCC(O)COc1cccc2[nH]c3ccccc3c12 (configuration not stated) [CARVEDILOL]    rule met
6. Cc1cc(C(C)(C)C)c(O)c(C)c1CC1=NCCN1 [OXYMETAZOLINE]    rule met
7. CN1C[C@H](CNC(=O)OCc2ccccc2)C[C@@H]2c3cccc4c3c(cn4C)C[C@H]21 [METERGOLINE]    rule met

###

# assay.comment: DRUGMATRIX: Glutamate, Kainate radioligand binding (ligand: [3H] Kainic acid)
# Format: cell membranes, Rattus norvegicus, Wistar, Brain, Membrane
# condition.set: Not Active = under 50% inhibition at 10 µM
outcome.measure: Ki

1) CC[C@H](C)[C@@H](CO[C@@H](Cc1ccccc1)C(=O)N[C@@H](CCS(C)(=O)=O)C(=O)OC(C)C)NC[C@@H](N)CS    Not Active
2) NS(=O)(=O)c1cc(C(=O)O)c(NCc2ccco2)cc1Cl [FUROSEMIDE]    Not Active
3) Oc1ccccc1    Not Active
4) OC[C@H]1O[C@@H]2O[C@H]3[C@H](O)[C@@H](O)[C@@H](O[C@H]4[C@H](O)[C@@H](O)[C@@H](O[C@H]5[C@H](O)[C@@H](O)[C@@H](O[C@H]6[C@H](O)[C@@H](O)[C@@H](O[C@H]7[C@H](O)[C@@H](O)[C@@H](O[C@H]8[C@H](O)[C@@H](O)[C@@H](O[C@H]1[C@H](O)[C@H]2O)O[C@@H]8CO)O[C@@H]7CO)O[C@@H]6CO)O[C@@H]5CO)O[C@@H]4CO)O[C@@H]3CO    Not Active
5) CCCCCCNC(=O)n1cc(F)c(=O)[nH]c1=O    Not Active
6) CCN1CCCC1CNC(=O)c1cc(S(N)(=O)=O)ccc1OC (configuration not stated) [SULPIRIDE]    Not Active
7) NC(N)=Nc1nc(CSCCC(N)=NS(N)(=O)=O)cs1    Not Active
8) CCN1C[C@]2(COC)[C@H](O)C[C@H](OC)[C@@]34[C@@H]5C[C@@]6(O)[C@H](OC(=O)c7ccccc7)[C@@H]5[C@@](OC(C)=O)([C@@H]([C@H](OC)[C@H]23)[C@@H]14)[C@@H](O)[C@@H]6OC    Not Active
9) COc1cc([C@@H]2c3cc4c(cc3[C@H](O)[C@H]3COC(=O)[C@H]23)OCO4)cc(OC)c1OC    Not Active
10) CC(C)NCC(O)COc1ccc(CC(N)=O)cc1 (configuration not stated)    Not Active
11) C[N+](C)(C)CCOC(N)=O.[Cl-]    Not Active
12) C#C[C@]1(O)CC[C@H]2[C@@H]3[C@H](C)CC4=C(CCC(=O)C4)[C@H]3CC[C@@]21C    Not Active
13) COC(=O)C[C@](O)(CCC(C)(C)O)C(=O)O[C@@H]1C(OC)=C[C@]23CCCN2CCc2cc4c(cc2[C@H]13)OCO4    Not Active
14) COC(=O)Nc1nc2ccc(Sc3ccccc3)cc2[nH]1    Not Active
15) CN1C[C@H](CNC(=O)OCc2ccccc2)C[C@@H]2c3cccc4c3c(cn4C)C[C@H]21    Not Active
16) CC1(COc2ccc(CC3SC(=O)NC3=O)cc2)CCCCC1 (configuration not stated)    Not Active
17) CN(CCOc1ccc(C[C@H](Nc2ccccc2C(=O)c2ccccc2)C(=O)O)cc1)c1ccccn1    Not Active
18) Clc1cc(Cl)c(OCC#CI)cc1Cl    Not Active
19) c1ccc2c(c1)Nc1ccccc1S2    Not Active
20) CCOc1cc(N)c(Cl)cc1C(=O)NCC1CN(Cc2ccc(F)cc2)CCO1 (configuration not stated) [MOSAPRIDE]    Not Active
21) NCC(CC(=O)O)c1ccc(Cl)cc1 (configuration not stated)    Not Active
22) CCN1CCN(c2cc3c(cc2F)c(=O)c(C(=O)O)cn3C2CC2)CC1    Not Active
23) C[N+](C)(C)CCOP(=O)([O-])OC[C@H](O)CO    Not Active
24) C#C[C@]1(O)CC[C@H]2[C@@H]3CCC4=CC(=O)CC[C@@H]4[C@H]3CC[C@@]21C    Not Active
25) COc1ccc(C[C@H](N)C(=O)N[C@H]2[C@@H](O)[C@H](n3cnc4c(N(C)C)ncnc43)O[C@@H]2CO)cc1    Not Active
26) CN1C(=O)OC(C)(C)C1=O    Not Active
27) Nc1ccc(C(=O)O)c(O)c1    Not Active
28) CCN(CCO)CCCC(C)Nc1ccnc2cc(Cl)ccc12 (configuration not stated) [HYDROXYCHLOROQUINE]    Not Active
29) NC(=O)NC(=O)Cc1ccccc1 [PHENACEMIDE]    Not Active
30) Oc1ccc(/C=C/c2cc(O)cc(O)c2)cc1    Not Active
31) CC1(C)[C@H](C(=O)O)N2C(=O)C[C@H]2S1(=O)=O    Not Active
32) CS(=O)(=O)c1ccc(C2=C(c3ccccc3)C(=O)OC2)cc1    Not Active
